Values from patent US9029405B2

# Target or test system: S1P1 (Homo sapiens)
# Sequence (P21453 whole entry): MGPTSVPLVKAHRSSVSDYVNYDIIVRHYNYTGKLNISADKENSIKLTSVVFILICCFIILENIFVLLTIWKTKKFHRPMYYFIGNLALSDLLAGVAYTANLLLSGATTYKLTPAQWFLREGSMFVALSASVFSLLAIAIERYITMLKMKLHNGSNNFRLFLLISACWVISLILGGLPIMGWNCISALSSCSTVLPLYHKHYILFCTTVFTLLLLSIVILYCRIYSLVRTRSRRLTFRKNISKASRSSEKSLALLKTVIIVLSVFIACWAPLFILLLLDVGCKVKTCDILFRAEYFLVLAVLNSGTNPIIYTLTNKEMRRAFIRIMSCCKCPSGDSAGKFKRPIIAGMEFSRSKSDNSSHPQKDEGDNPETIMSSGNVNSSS
# Assay: S1P1 internalization assay in S1P1-U2OS cells (cell imaging)
# Settings: U2OS cells expressing S1P1-EGFP, 384-well format
Where a name gives a salt, the structure may show the parent alone.
For each entry below, report its pEC50 value.
# reply with the number alone; pEC50 is -log10 of concentration in mol/L

Given CCN(Cc1ccc(-c2noc(-c3ccc(-c4ccccc4C)c(C(F)(F)F)c3)n2)cc1)[C@@H](C)C(=O)O , state its recorded pEC50.
7.49

Item under review: Cc1ccccc1-c1ccc(-c2nc(-c3ccc(C(C)NCC(=O)O)cc3)no2)cc1C(F)(F)F (stereo not drawn) [Example 32, hydrochloride salt] . Reported pEC50?
8.12

Which measured pEC50 value corresponds to Cc1ccccc1-c1ccc(-c2nc(-c3ccc([C@H](C)N[C@H](C)C(=O)O)cc3)no2)cc1C(F)(F)F [Example 17, hydrochloride salt] ?
7.68

If you can, please state the reported pEC50 value of Cc1ccccc1-c1ccc(-c2nc(-c3cccc(C(C)N(C)[C@@H](C)C(=O)O)c3)no2)cc1C(F)(F)F (stereo partly drawn) [Example 29, hydrochloride salt] .
7.34

Entry CCC(C(=O)O)N(C)Cc1ccc(-c2noc(-c3ccc(-c4ccccc4C)c(C(F)(F)F)c3)n2)cc1F (stereo not drawn) [Example 1, hydrochloride salt] : reported pEC50 = ?
7.36

Request the reported pEC50 associated with Cc1ccccc1-c1ccc(-c2nc(-c3cccc(CN(C)[C@@H](C)C(=O)O)c3)no2)cc1C(F)(F)F
7.31
